Record: compiled pIC50 on Epidermal growth factor receptor (Homo sapiens, UniProt P00533) from multiple reports.
pIC50: −log10 of the molar value.

[
  {
    "molecule": "CN1CCN(c2ccc(Nc3nc(Nc4cccc5c4N(S(C)(=O)=O)CC5)c4cc[nH]c4n3)c(F)c2F)CC1",
    "pIC50": 5.89
  },
  {
    "molecule": "C=CC(=O)Nc1cccc(Nc2cc(Nc3ccc(OCc4ccccn4)c(Cl)c3)ncn2)c1",
    "pIC50": "≥ 8.00"
  },
  {
    "molecule": "C#Cc1c(F)ccc(Nc2ncnc3cc(OC)cc(O[C@@H]4CCN(C)CC4(F)F)c23)c1F",
    "pIC50": "> 8.00"
  },
  {
    "molecule": "COc1ccccc1C(=O)NCc1ccc(-c2nn(C3C=CCCC3)c3ncnc(N)c23)cc1 (stereo not drawn)",
    "pIC50": "7.00 to 8.00"
  },
  {
    "molecule": "C=CC(=O)N1CCc2c(sc3ncnc(Nc4ccc(Oc5cccnc5)c(Cl)c4)c23)C1",
    "pIC50": "< 5.00"
  },
  {
    "molecule": "C=CC(=O)Nc1cc(Nc2nccc(-c3nn(C45CC(C4)C5)c4ccccc34)n2)c(OC)cc1N(C)CCN(C)C",
    "pIC50": "≥ 8.00"
  },
  {
    "molecule": "C=C1c2c(-c3cnc4ccccc4c3)c3c(N)ncnc3n2C[C@H]1NC(=O)/C=C/CN(C)C(C)C",
    "pIC50": 7.96
  },
  {
    "molecule": "COc1ccccc1C(=O)NCc1ccc(-c2nn(C3CCCC(C(=O)N(C)C)C3)c3ncnc(N)c23)cc1 (stereo not drawn)",
    "pIC50": "5.00 to 6.00"
  },
  {
    "molecule": "C=CC(=O)Nc1cc(-c2c(-c3ccc(N4CCN(C)CC4)cc3)[nH]c3ncc(C(=O)OC(C)C)cc23)cc(F)c1C",
    "pIC50": "≥ 7.00"
  }
]

* * *

Literature-derived IC50 for UniProt:P00533 follows.

[
  {
    "compound structure string": "CC(C)c1nc(-c2cc(F)cc(NS(=O)(=O)c3ccc(F)cc3)c2)c(-c2ccnc(Nc3ccc(N4CCOCC4)c(F)c3)n2)s1",
    "IC50": "> 1 µM"
  },
  {
    "compound structure string": "CC(C)Oc1nn([C@@H](C)CO)c2c1/C=C/c1n[nH]c3cc(F)c(cc13)-c1cnn(C)c1O[C@@H](C)CN(C)C2",
    "IC50": "0.00646 µM"
  },
  {
    "compound structure string": "C=CC(=O)Nc1cccc(Oc2nc(Nc3ccc(N4CCOCC4)cc3OC)ncc2Cl)c1",
    "IC50": "0.01 to 0.03 µM"
  },
  {
    "compound structure string": "CCN1Cc2c(c(OC(C)C)nn2CC(C)(C)O)/C=C/c2n[nH]c3ccc(cc23)-c2cnn(C)c2O[C@@H](C)C1",
    "IC50": "0.0945 µM"
  },
  {
    "compound structure string": "COc1ccccc1C(=O)NCc1ccc(-c2nn(C3CCOCC3)c3ncnc(N)c23)cc1",
    "IC50": "0.1 to 1 µM"
  },
  {
    "compound structure string": "CC#CC(=O)N1CCC[C@@H](n2nc(-c3ccc(C(=O)Nc4cc(CCC)ccn4)cc3)c3c(N)ncnc32)C1",
    "IC50": "0.1 to 1 µM"
  },
  {
    "compound structure string": "Fc1cc(Cl)cc(CCNCc2ccc(-c3ccc4ncnc(Nc5ccc(OCc6cccc(F)c6)c(Cl)c5)c4c3)o2)c1",
    "IC50": "< 10 µM"
  },
  {
    "compound structure string": "Cc1cnc(NC(=O)c2ccc(Oc3ccnc4[nH]nc(N[C@@H]5CCN(C(=O)C6CCN(C)CC6)C5)c34)cc2)s1",
    "IC50": "1 to 10 µM"
  },
  {
    "compound structure string": "CC(C)c1nc(-c2ccnc(NS(=O)(=O)c3c(F)cccc3F)c2)c(-c2ccnc(Nc3ccc(N4CCOCC4)nc3)n2)s1",
    "IC50": "> 1 µM"
  }
]
